tested-system: CH505.M11D8gp120/293F
assay: ELISA
Note to self: LogAUC under 8 means yes (1), ties and anything higher get no (0).

Consider the binder CH556 (antibody, V domains shown, also called CH235.11) VH: QVQLVQSGGTVKSPGTSVTLSCKTSGYNFIDYYIHWVRRAPGQRPELMGYIDPSHGRPDYEGKFRDRISLYRDTSTSVVYMDVRGLRLDDTALYYCVRGGGVEVSSNHYDHWGPGTMVFVSP VL: ETTLTQSPDTLSASPGERVTLSCRAAQSVGSQVAWFRHIRGQPPRLLISGASTRAAGVPARFSGSGSGTDFTLTISGMQSEDFAEYFCQQYHMWWTFGQGTRVDKN . Is its LogAUC strictly less than 8?
yes (1)

Consider the binder CH235.13 (antibody, V domains shown) VH: QVQLVQSGGGVKRPGSTTTISCVASGYSFNDYYIHWVRQAPGQGLEVLGFIDPSNGRTNYAGAFGDRFSMYRDKSMETLYMDLRNLRSDDTAMYYCVRNVGTAGSLLHYDHWGTGSKIIVSS VL: EIVLTQSPATLSASPGERVTLTCRASRGVRNNVAWYQHNVGQSPRLLIYDASTRAPGIPARFSGSASGTEFTLAISSIQSEDFTLYYCHQYNNWWTFGQGTRVDIN . Is its LogAUC strictly less than 8?
yes (1)

Consider the binder CH493 (antibody, V domains shown, also called CH235.9; DH493) VH: QVRLLQYGGGVKRPGASMTISCVASGYNFNDYYIHWVRQAPGQGLELMGWIDPSGGRTDYAGAFGDRVSMYRDKSMNTLYMDLRSLRSGDTAMYYCVRNVGTAGSLLHYDHWGLGVMVTVSS VL: EIVLTQSPATLSVSPGERVTLSCRASQSVRNNLAWYRQKRGQAPRLLIYGASTRATGIPARFSGSGSGTEFTLTISSMQSEDFAVYYCQQYNNWWTFGQGTKVEIK . Is its LogAUC strictly less than 8?
no (0)

Consider the binder CH236 (antibody, V domains shown, also called CH236_4A/293i) VH: QVQLVQSGAAVKRPGASVTISCRASGYTFTTYYIHWVRQAPGQRLELMGMIDPSRGRTDYAQKFQGRVTMSRDTSTSTLYMELRSLRPDDTALYYCVRNVGTEGSLLHYDYWGQGTLVTVSS VL: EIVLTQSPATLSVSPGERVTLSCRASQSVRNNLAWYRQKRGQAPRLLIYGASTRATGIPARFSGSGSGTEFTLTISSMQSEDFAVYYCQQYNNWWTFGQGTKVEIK . Is its LogAUC strictly less than 8?
yes (1)

Consider the binder CH241 (antibody, V domains shown) VH: QVQLVQSGAAVKKPGASVRVSCKASGYTFTSSHIHWVRQAPGQGPEWMGMIDPSVGRPTTAGKFQGRVTMTRDRYTSTAYMDLSSLRSEDTAVYYCARSVETTGSLLYFDYWGQGTLITVSS VL: EIVLTQSPATLSVSPGERATLSCRASQSVRSNIAWYQQKPGQAPRLLIHGASTRATGIPGRFSGSGSGPEFTLAISSVQSEDFAVYYCQQYNDWWTFGQGTKVEIK . Is its LogAUC strictly less than 8?
no (0)
